# Tested on: SNB-78
# protocol.text: NCI tumour cell line growth inhibition, 48 h
The source made the active and inactive calls. No stated cut-off is given here; in the data, active = GI50 up to about 1.1 µM and inactive = higher.
Permitted responses: true for active, false for inactive

As a guide, the following entries are already answered.
compound	label.class
O=C(O)c1cc2c3c(c1)[C@H]1C=CC[C@H]1CN3CC1CC=CC21 (some centres undefined)	false
O=C(O)CCCCCO	false
Nc1ccc2[nH]c3c(-c4ccccc4)nccc3c2c1	false
O=C(CCC(=O)Nc1ccccc1C(F)(F)F)N/N=C1\C(=N\NC(=O)CCC(=O)Nc2ccccc2C(F)(F)F)C(c2ccc3c(c2)OCO3)Oc2ccccc21 (centres undefined)	false
CCOC(=O)/C([O-])=C(\C(=O)OCC)[n+]1c(C)n(C)c2ccccc21	false

Task: Tell me the recorded outcome of this test for C[C@]12CCc3nn(-c4ccccc4)nc3C1CC[C@@H]1C2CC[C@]2(C)C(=O)CCC12 (some centres undefined) .
Result: false

Task: Tell me the recorded outcome of this test for CCOC(=O)C(Cc1cc(OC)c(CC(C(=O)OCC)C(=O)OCC)cc1OC)C(=O)OCC .
Result: false

Task: Tell me the recorded outcome of this test for CC(=O)OCC1OC(n2cc(F)c(=O)[nH]c2=O)C(NC(=O)OCc2ccccc2)C(OC(C)=O)C1OC(C)=O (centres undefined) .
Result: false

---

# Test system: MOLT-4
# protocol.text: NCI tumour cell line growth inhibition, 48 h
Calls of active or inactive are those of the source. Cut-off read from the data, not from the text of the source: active = GI50 up to about 1.1 µM and inactive = higher.
Consider the following molecules and their measured GI50 readings.

molecule	GI50
C=C1C(=O)OC2C1C(OC(=O)/C(C)=C\C)CC1(CO1)C1C(O)C=C(C)C21O (stereo not given)	2 µM (inactive)

Short answer for O=C(c1ccccc1)n1cc(/C=C/[N+](=O)[O-])c2ccccc21 : GI50 was 17.2 µM (inactive)

Short answer for O=C1CC(c2c[nH]c3ccccc23)C(=O)N1c1ccccc1 (stereo not given) : GI50 was > 100 µM (inactive)

Short answer for CN(C)c1ccc(/N=C2/NC(=N\c3ccccc3)/C(=N/c3ccccc3)S2)cc1 : GI50 was 89.1 µM (inactive)

Short answer for Cn1c(-c2cccs2)cc(-c2ccsc2)c1-c1ccsc1 : GI50 was > 100 µM (inactive)

Short answer for O=c1[nH]c2c3ccccc3ccc2c2cc3c(cc12)OCO3 : GI50 was 40 µM (inactive)

---

# Test system: ACHN
# protocol.text: NCI tumour cell line growth inhibition, 48 h
Calls of active or inactive are those of the source. Cut-off read from the data, not from the text of the source: active = GI50 up to about 1.1 µM and inactive = higher.
property.label: GI50

Some entries whose results are on file:
molecule	reported.value
COC(=O)c1cc(C)n(CN(Cn2nc(C(=O)OC)cc2C)c2ccccc2)n1	18.7 µM (inactive)
COC(O)C(=O)c1ccc2c(c1)CC1(C2)Cc2cc3c(cc2C1=O)CCC3 (stereo not drawn)	17 µM (inactive)
CN1C(=O)C(=CNc2ccc(Cl)cc2Cl)C(=O)N(C)C1=O	> 100 µM (inactive)
O=C1/C(=C/c2ccccc2O)N=C(c2ccccc2)N1c1nc2ccccc2s1	23.7 µM (inactive)
O=C(c1ccccc1)n1cc(/C=C/[N+](=O)[O-])c2ccccc21	> 100 µM (inactive)
CC(=O)OCC1OC(Sc2nc(-c3ccc(C)cc3)c(C#N)c(=O)n2C2OC(COC(C)=O)C(OC(C)=O)C(OC(C)=O)C2OC(C)=O)C(OC(C)=O)C(OC(C)=O)C1OC(C)=O (stereo not drawn)	> 100 µM (inactive)
CSC(SC)(C(=O)O)c1cc(-c2c(Cl)cccc2Cl)no1	46.9 µM (inactive)

Short answer for C=CCC1(O)c2ccccc2C(=O)c2c(O)ccc(O)c21 (stereo not drawn) : GI50 was 13.7 µM (inactive)

---

# Tested on: UO-31
# protocol.text: NCI tumour cell line growth inhibition, 48 h
Calls of active or inactive are those of the source. Rule as the data show it: active = GI50 up to about 1.1 µM and inactive = higher.
property.label: GI50

Some entries whose results are on file:
compound	GI50
Cc1c(NC(=O)CSC(=S)N(C)C)c(=O)n(-c2ccccc2)n1C	> 100 µM (inactive)
COC(=O)[C@H]1CO[C@H]2C/C(C)=C/CC/C(C)=C/CC[C@@]3(C)O[C@@H]3C[C@H]21	13.4 µM (inactive)
Nc1ccc2[nH]c3c(-c4ccccc4)nccc3c2c1	37.7 µM (inactive)
COc1ccc(Cc2coc3ccccc3c2=O)cc1OC	38.5 µM (inactive)
CCO/C=N\C1=C(C#N)SC2=N/C(=C\c3ccco3)C(=O)N21	> 100 µM (inactive)
CN(C)CCCCN1CCc2c(n(C)c3ccccc23)C1=O	30.9 µM (inactive)
Cc1ccc(S(=O)(=O)N2CCCN(S(=O)(=O)c3ccc(C)cc3)CCN(S(=O)(=O)c3ccc(C)cc3)CCCSCC2)cc1	> 100 µM (inactive)
CC1CC/C(=C\c2ccc(F)cc2)C2=C1C(c1ccc(F)cc1)N1C(=O)CSC1=N2 (stereo not given)	87.9 µM (inactive)
c1ccc2c(c1)CC1=C(O2)c2ccccc2OC1	41.2 µM (inactive)

Short answer for COc1ccc(C23C(=O)c4ccccc4N2O[C@H]2C(=O)N(c4ccccc4)C(=O)[C@H]23)cc1 (stereo not given in full) : GI50 was > 100 µM (inactive)

---

# Test system: RPMI-8226
# protocol.text: NCI tumour cell line growth inhibition, 48 h
Calls of active or inactive are those of the source. Cut-off read from the data, not from the text of the source: active = GI50 up to about 1.1 µM and inactive = higher.
Permitted responses: active, inactive

molecule	label.class
CSCSSC	inactive
COC(=O)/C(C#N)=C1\CCC(OC)N1 (stereo not drawn)	inactive
N[C@@H]1CCN(c2c(F)cc3c(=O)c(C(=O)O)cn4c3c2Oc2c-4ccc3c2ccc2ccccc23)C1	active

Task: Tell me the recorded outcome of this test for COC(=O)c1ccc2c(c1)CCN2C(=O)c1cc2c(cc1Br)OCO2 .
Result: active

Task: Tell me the recorded outcome of this test for O=C(NNc1nc(-c2ccccc2)cs1)C(F)(F)F .
Result: inactive

Task: Tell me the recorded outcome of this test for O=C(O)c1nc2ccc(C(F)(F)F)cc2[nH]c1=O .
Result: inactive

Task: Tell me the recorded outcome of this test for CC[S+]([O-])C(=O)N(O)c1ccc(Cl)cc1 (stereo not drawn) .
Result: inactive

Task: Tell me the recorded outcome of this test for COc1ccc(/C=C/c2cc(OC)c(OC)c(OC)c2)cc1O[Si](C)(C)C(C)(C)C .
Result: active

Task: Tell me the recorded outcome of this test for Cc1ccccc1/N=N/c1cc(C)c(/N=N/c2c(O)ccc3ccccc23)cc1C .
Result: inactive

Task: Tell me the recorded outcome of this test for C=C=C(CC1CCCCC1=O)S(=O)(=O)c1ccccc1 (stereo not drawn) .
Result: active

Task: Tell me the recorded outcome of this test for CCCCN1C(=O)C[C@H]2[C@@H]3CCc4cc(OCCN5CCCC5)ccc4[C@H]3CC[C@]2(C)C1=O .
Result: inactive

Task: Tell me the recorded outcome of this test for NS(=O)(=O)c1cc2c(cc1Cl)NC(Cc1ccccc1)NS2(=O)=O (stereo not drawn) [BENZYLHYDROCHLOROTHIAZIDE] .
Result: inactive

Task: Tell me the recorded outcome of this test for Cn1c2ccccc2c2c(-c3ccccc3)cc3c(c21)C(=O)C=CC3=O .
Result: inactive

Task: Tell me the recorded outcome of this test for CCCCCCCCCCCCCC[S+](C)C .
Result: active

Task: Tell me the recorded outcome of this test for COC(=O)c1cc(C)n(CN(Cn2nc(C(=O)OC)cc2C)c2ccccc2)n1 .
Result: inactive

Task: Tell me the recorded outcome of this test for COc1ccc2[nH]c(C(=O)N3CC(CCl)c4ccc(N)cc43)cc2c1 (stereo not drawn) .
Result: active

Task: Tell me the recorded outcome of this test for O=C1CCCCCCCCCCC1CN1CCCC1 (stereo not drawn) .
Result: inactive

Task: Tell me the recorded outcome of this test for Nc1nc(Nc2ccc(Cl)cc2)sc1C(=O)c1c[nH]c2ccccc12 .
Result: inactive

---

# System: COLO 205
# protocol.text: NCI tumour cell line growth inhibition, 48 h
Activity calls are given as the source filed them. Cut-off read from the data, not from the text of the source: active = GI50 up to about 1.1 µM and inactive = higher.
Permitted responses: active, inactive

compound	label.class
c1ccc2sc(C3(N4CCCC4)CCCCCC3)cc2c1	inactive
CN1C(=O)C(=CNc2ccc(Cl)cc2Cl)C(=O)N(C)C1=O	inactive
N#C/C(=N/Nc1[nH]cnc1C(N)=O)C(=O)Nc1ccccc1	inactive
CCOC(CNc1nn2c(C)nnc2s1)OCC	inactive

Task: Tell me the recorded outcome of this test for CC(CN1NC12CCCC2)N1NC12CCCC2 (configuration not stated) .
Result: inactive

Task: Tell me the recorded outcome of this test for CSC(SC)(C(=O)O)c1cc(-c2c(Cl)cccc2Cl)no1 .
Result: inactive

Task: Tell me the recorded outcome of this test for CC1(C)S[C@@H]2[C@H](NC(=O)[C@H](N)c3ccccc3)C(=O)N2[C@H]1C(=O)O .
Result: inactive

Task: Tell me the recorded outcome of this test for O=C(CCc1ccc(O)c(O)c1)NCCc1ccccc1 .
Result: inactive

---

# Test system: 786-0
# protocol.text: NCI tumour cell line growth inhibition, 48 h
The source made the active and inactive calls. Rule as the data show it: active = GI50 up to about 1.1 µM and inactive = higher.
Permitted responses: active, inactive

compound	label.class
CCCCCCCCNC(=O)SCCCC	inactive
Cc1c(NC(=O)CSC(=S)N(C)C)c(=O)n(-c2ccccc2)n1C	inactive
Cc1cc(C)n(C2=NS(=O)(=O)c3ccccc3N2C)n1	inactive

Task: Tell me the recorded outcome of this test for Cc1cc(N)ccc1/N=N\c1ccc(S(=O)(=O)CCOS(=O)(=O)O)cc1 .
Result: active

Task: Tell me the recorded outcome of this test for CC(C)(C)c1ccc(O)c(C(O)c2cccnc2)c1 (stereo not given) .
Result: inactive

Task: Tell me the recorded outcome of this test for O=C(O)c1cc2c3c(c1)[C@H]1C=CC[C@H]1CN3CC1CC=CC21 (stereo not given in full) .
Result: inactive
